src = a melting point compilation (Tetko et al.; mined from patent text by program, amines drawn as free bases though some values may be those of a salt)

reported_property: melting point

Value lookup for melting point; key = CC(=O)Cc1ccc(CC2SC(=N)NC2=O)cc1 (stereo unspecified)
196 to 198 °C

Now consider `NC(=O)c1cccc(OCc2ccccc2)c1` and answer again.
136 to 140 °C

Then this compound: `Nc1cc(=O)n(Cc2ccc(Br)cc2)[nH]1`
139 °C

Same for `O=[N+]([O-])c1cc(-c2cccnc2)ccc1O`
> 300 °C

// query: `CCCN(CCC)c1nc2c(N3CCCCCC3)nc(N3CCCCCC3)cc2c(=O)[nH]1`
220 °C

Query `c1ccc(Cn2cnc(-c3cnc(-c4ccccc4)nc3)c2)cc1` next
195 °C

// query: `c1ccc(-c2cc(-c3ccc(-c4nccc5ccccc45)cc3)cc(-c3nc(-c4ccccc4)nc(-c4ccccc4)n3)c2)cc1`
280 °C

Now give it for `CC(C)C[C@H](NC(=O)OCc1ccccc1)C(=O)N[C@@H](Cc1ccccc1)C(=O)CSCc1ccccn1` too.
82 to 87 °C

What do you get for N#CC(c1ccccc1)N1CCN(C2CCCCC2)CC1 (stereo unspecified) ?
79 to 81 °C

What do you get for O[C@@H]1CNC[C@H]1Sc1ccccc1 (relative stereo) ?
140 to 141 °C

Further, for `CCCCc1cc(C(=O)O)ncc1C(=O)O` ?
239 °C

Could you do the same for `CS(=O)(=O)Nc1ccc(NC(=O)C(=O)O)cc1` , please?
> 260 °C

Try this compound too: `Clc1ccc(C2CCNCC2)cc1`
143 °C

Record: Cc1nc2ccc3c(c2o1)C(CCNC(=O)C(F)(F)F)CC3 (stereo unspecified)
104 to 106 °C

Next compound: `Clc1ccc(-c2nc(Br)cnc2OCC2CC2)cc1`
86 to 87 °C

// query: `Brc1ccc2c(c1)cc1n2CCC1`
78.7 to 79.4 °C

====

Hi there, I'd appreciate the recorded melting point for every entry that follows.
State just the number; it will be interpreted in °C.

Need melting point, item `COc1ccccc1N1CCN(CCc2ccc(OC(=O)C(C)(C)C)c3ncccc23)CC1`
115

# repeat for Cn1cncc1C(O)c1ccc2c(c1)c(-c1cccc(Cl)c1)cc(=O)n2C (stereo unspecified)
167

Then this molecule: `Cc1cnc2c(S(=O)(=O)N[C@@H](CCCc3cn(C(c4ccccc4)(c4ccccc4)c4ccccc4)cn3)C(=O)O)cccc2c1`
170

Likewise for `O=C(O)CCNC(=O)c1cc([N+](=O)[O-])c2ccccc2c1O` ?
254

====

reported_property: melting point

Bench note: what melting point did CC1(C)Oc2ccc([N+](=O)[O-])cc2[C@@H](O)[C@@H]1Br (relative stereo) show?
114 to 116 °C

Same again, this time with `C#Cc1ncn2c1CN(C)C(=O)c1cc(F)ccc1-2`
207 to 208 °C

What about this compound? `CCc1nc(C2CC2)c[nH]1`
104 to 106 °C

Then this compound: COC(=O)C(Oc1ccc(F)cc1)c1ccc(Sc2ccc(Cl)cc2)cc1 (stereo unspecified)
84.5 to 87 °C

Quick one: `CCCCCCCC1(CCCCCCC)c2cc(Br)ccc2-c2ccc(Br)cc21`
45 to 46 °C

Same question, `CC(=CN(C)C)C(=O)c1ccc(Cl)cc1` this time
45 to 47 °C

====

Assignment: determine reported melting point for the given compounds.

Quick one: melting point for `Cc1oc(-c2ccccc2)nc1COc1ccc(COc2cccnc2CC#N)cc1` ?
138 to 139 °C

And what about the compound `CCOC(=O)N1CCC(O)(c2cc(F)c(Br)cc2F)CC1` ?
133 to 136 °C

// query: `Nc1ccc2ccc(N3CCCC3)nc2n1`
251 °C

And `O=C1CCn2c(-c3ccccc3)nc3cc(Cl)cc1c32` ?
234 to 235 °C

// query: Cc1cc(C)c(C2=C(OC(=O)C(C)(C)C)CC(CC3CCOC3)CC2=O)c(C)c1 (stereo unspecified)
108 to 110 °C

// query: `CC(C)(C)OC(=O)NCCNC(=O)c1ncsc1-c1cccc(I)c1`
111 to 112 °C
